- testedSystem: furin, P09958;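 further: purified furin at 1:10 enzyme:substrate in 50 mM HEPES pH 7.5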
- Sequence (P09958 whole entry): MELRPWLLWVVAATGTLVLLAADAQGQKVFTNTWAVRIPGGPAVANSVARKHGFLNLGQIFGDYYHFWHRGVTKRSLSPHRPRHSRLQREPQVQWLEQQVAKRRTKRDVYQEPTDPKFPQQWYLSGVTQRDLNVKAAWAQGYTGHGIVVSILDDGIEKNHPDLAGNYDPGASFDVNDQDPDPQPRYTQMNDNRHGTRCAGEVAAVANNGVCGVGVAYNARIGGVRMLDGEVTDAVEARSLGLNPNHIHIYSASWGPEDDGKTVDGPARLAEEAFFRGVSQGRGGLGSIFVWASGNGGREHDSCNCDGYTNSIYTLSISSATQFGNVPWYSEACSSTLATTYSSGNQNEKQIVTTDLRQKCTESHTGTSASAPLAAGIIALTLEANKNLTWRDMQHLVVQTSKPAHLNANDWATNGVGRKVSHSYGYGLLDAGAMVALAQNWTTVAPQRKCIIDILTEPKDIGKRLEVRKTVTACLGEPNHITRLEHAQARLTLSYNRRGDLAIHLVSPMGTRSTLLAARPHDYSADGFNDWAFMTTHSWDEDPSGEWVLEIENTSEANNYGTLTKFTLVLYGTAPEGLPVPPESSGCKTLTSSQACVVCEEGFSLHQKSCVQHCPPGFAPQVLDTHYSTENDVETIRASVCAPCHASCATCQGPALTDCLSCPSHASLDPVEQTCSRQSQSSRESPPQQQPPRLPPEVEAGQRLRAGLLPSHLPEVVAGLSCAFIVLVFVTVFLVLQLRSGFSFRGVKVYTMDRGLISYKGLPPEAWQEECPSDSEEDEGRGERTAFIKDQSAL
- experimentSummary: furin cleavage Z-score vs untreated control; higher = more cleavage, active = 3.5 or more, inactive = 1 or less, 8 variable residues between constant flanks
- conditionDescription: 7.5 min
This is one part of the list. No count for the full screen is at hand.
assayReadout: furin cleavage Z-score
Numbers only.

Solved cases below.
INSERT INTO assay_data (residues, endpointvalue) VALUES
  ('CARRRRTALAAGNASASA [FS-2800]', 7.39),
  ('CADVPRRKRKAGNASASA [FS-1316]', 7.09),
  ('CARRRRRTAIAGNASASA [FS-2080]', 4.79),
  ('CAMEECSQNLAGNASASA [HC1761]', -0.233),
  ('CAGESRSRRRAGNASASA [FS-329]', 2.73);

Take each entry in turn and give its furin cleavage Z-score.
1. CARRRRTAFAAGNASASA [FS-2798]
2. CANCGYRRCRAGNASASA [HC1507]
3. CARKPRPLDPAGNASASA [FS-2563]
4. CAPLNVRGGRAGNASASA [HC592]
5. CARKSRDMEIAGNASASA [FS-2980]
6. CAQPEYDLELAGNASASA [HC1548]
7. CARSARRKRKAGNASASA [FS-1610]

1: 5.77; 2: -0.406; 3: 1.12; 4: -0.486; 5: 0.641; 6: 1.74; 7: 9.41

Take each entry in turn and give its furin cleavage Z-score.
1. CACVWRRKRKAGNASASA [FS-324]
2. CARVKRSRRRAGNASASA [FS-2839]
3. CAPVSARRGRAGNASASA [HC661]

4.9
10.1
3.67
